# Measurement Target: UniProt Q12809
# Sequence (Q12809 whole entry): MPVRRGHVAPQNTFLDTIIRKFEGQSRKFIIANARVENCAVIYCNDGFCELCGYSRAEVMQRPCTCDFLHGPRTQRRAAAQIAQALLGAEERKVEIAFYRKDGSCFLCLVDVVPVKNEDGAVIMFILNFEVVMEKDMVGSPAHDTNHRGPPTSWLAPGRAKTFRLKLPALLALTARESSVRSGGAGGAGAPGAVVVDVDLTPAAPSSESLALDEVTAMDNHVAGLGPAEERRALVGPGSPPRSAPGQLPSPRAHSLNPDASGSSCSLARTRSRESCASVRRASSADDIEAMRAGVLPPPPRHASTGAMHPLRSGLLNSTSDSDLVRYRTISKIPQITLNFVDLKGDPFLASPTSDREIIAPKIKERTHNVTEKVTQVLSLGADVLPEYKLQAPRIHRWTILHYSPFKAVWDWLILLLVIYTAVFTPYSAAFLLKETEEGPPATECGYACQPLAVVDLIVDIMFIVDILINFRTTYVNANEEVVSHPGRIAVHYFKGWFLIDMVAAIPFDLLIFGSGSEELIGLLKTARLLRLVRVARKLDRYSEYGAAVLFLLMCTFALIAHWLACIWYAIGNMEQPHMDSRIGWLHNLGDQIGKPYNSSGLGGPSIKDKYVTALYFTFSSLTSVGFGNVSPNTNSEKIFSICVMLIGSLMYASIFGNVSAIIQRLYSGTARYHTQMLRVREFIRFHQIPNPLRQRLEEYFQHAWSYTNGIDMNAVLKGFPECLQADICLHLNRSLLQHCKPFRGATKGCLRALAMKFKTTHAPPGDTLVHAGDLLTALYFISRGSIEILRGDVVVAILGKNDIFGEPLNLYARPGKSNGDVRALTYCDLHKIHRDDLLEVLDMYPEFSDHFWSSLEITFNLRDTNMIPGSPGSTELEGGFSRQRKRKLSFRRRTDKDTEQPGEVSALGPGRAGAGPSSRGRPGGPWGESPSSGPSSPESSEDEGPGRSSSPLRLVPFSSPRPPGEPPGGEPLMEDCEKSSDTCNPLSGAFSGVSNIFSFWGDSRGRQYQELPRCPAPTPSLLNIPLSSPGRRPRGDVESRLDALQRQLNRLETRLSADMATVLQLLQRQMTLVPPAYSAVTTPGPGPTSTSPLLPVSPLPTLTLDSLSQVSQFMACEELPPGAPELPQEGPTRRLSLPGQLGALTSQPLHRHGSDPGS
# Method Notes: in vitro
# Description: MMV: Malaria Box compounds were tested for inhibition of the human ether a go-go related gene (hERG), Kv11.1 channel, using IonWorks 384-well patch clamp electrophysiology at 11.1uM (3 independent assay plates up to 12 cells per concentration).
Calls of active or inactive are those of the source. How the calls were made is not given here.
Please reply with one of these outcomes: y for active, n for inactive

Use these answered entries as a reference point.
| Compound | Measurement Target | Group |
| --- | --- | --- |
| CCOc1cccc(C(=O)Nc2ccc(-c3nc4ccccc4[nH]3)cc2)c1 | UniProt Q12809 | n |
| Cc1cc(NC(=O)c2cccc(C(F)(F)F)c2)n(-c2nc(-c3ccc4c(c3)OCO4)cs2)n1 | UniProt Q12809 | n |
| O=C(Nc1ccc(F)c(Cl)c1)Nc1ccc(Cl)c(Cl)c1 | UniProt Q12809 | n |
| O=C(c1ccccc1F)N(Cc1ccc(Cl)cc1)c1ccccn1 | UniProt Q12809 | n |
| COc1ccc(CCn2c(=N)c(C(=O)NCc3cccnc3)cc3c(=O)n4cccc(C)c4nc32)cc1 | UniProt Q12809 | n |
| COc1ccc(C(=O)C2CC2c2ccc(Cl)cc2)cc1 (stereo not given) | UniProt Q12809 | n |
| Cc1ccc(-c2cc(C(=O)Nc3ccc(S(=O)(=O)N4CCCCC4)cc3)[nH]n2)c(O)c1 | UniProt Q12809 | n |
| COc1ccc2c(c1OC)C(=O)N1c3ccccc3N=C(c3ccc(C)cc3)CC21 (stereo not given) | UniProt Q12809 | n |
| CCOc1cc(Cl)c(C(C)NC(=O)c2cccc(OC)c2)cc1OCC (stereo not given) | UniProt Q12809 | n |
| CCOc1c(Br)cc(C2C(C(=O)OC)=CN(C)C=C2C(=O)OC)cc1OC | UniProt Q12809 | n |

Problem: Hi, do you know how COc1ccc(C(O)(CCC(C)C)C(CN2CCOCC2)c2ccc(Cl)cc2)cc1 (stereo not given) came out in this test?
Solution: y

Problem: Hi, do you know how COc1cc(C(=O)Nc2nc3c(cc4c5c(cccc53)CC4)s2)cc(OC)c1OC came out in this test?
Solution: n

Problem: Hi, do you know how OC(CNC1CCCCC1)Cn1c2ccccc2c2ccccc21 (stereo not given) came out in this test?
Solution: n

Problem: Hi, do you know how Cc1ccc(N2C(=O)C3C(C2=O)C2(c4ccccc4)C(=O)C3(c3ccccc3)C(c3ccccc3)=C2c2ccccc2)cc1 (stereo not given) came out in this test?
Solution: n

Problem: Hi, do you know how Cc1cccc(N2C(=O)C3C(C2=O)C2(c4ccccc4)C(=O)C3(c3ccccc3)C(c3ccc4c(c3)OCO4)=C2c2ccc3c(c2)OCO3)c1 (stereo not given) came out in this test?
Solution: n

Problem: Hi, do you know how O=C(Nc1ccccc1O)c1ccc(Oc2cccc(C(=O)Nc3ccccc3O)c2)cc1 came out in this test?
Solution: n

Problem: Hi, do you know how CCOc1ccc2c(c1)CN(Cc1ccc(Cl)cc1)CO2 came out in this test?
Solution: y
